method_description: qHTS Assay for Lipid Storage Modulators in Drosophila S3 Cells; note: potency is the fitted concentration of half-maximal effect
conditions_used: BODIPY lipid droplet fluorescence, 18-24 h, cells fed with added oleic acid; series mostly up to 46.1 µM
The whole screen tested about 320,000 compounds, of which about 2,100 (0.66%) were called active. Not shown: some 53% with an inconclusive outcome. The list comes from a sample in which actives are over-represented; it also holds close analogues and randomly drawn compounds.
recorded_metric: Potency

>>> obs_value("CC1CCN(c2ccc(NC(=O)c3cccnc3)cc2)CC1")
"20.6 µM (active)"
>>> obs_value("Cc1cccc(NC(=S)NC(C)C(c2ccccc2)N2CCN(C)CC2)c1C (stereo not given)")
"inactive"
>>> obs_value("Cn1nc(-c2ccccc2)cc1NC(=O)Nc1ccccc1F")
"inactive"
>>> obs_value("CCOC(=O)N1CCN(CC(O)c2c[nH]c3ccccc23)CC1 (stereo not given)")
"inactive"
>>> obs_value("CCN(CC)S(=O)(=O)c1ccc(F)cc1")
"inactive"
>>> obs_value("OCCC1CN(Cc2cc3c(cc2Cl)OCO3)CCN1C1CCCCC1 (stereo not given)")
"inactive"
>>> obs_value("CCOc1ccc(/C=C/C2=Cc3c(sc(NC(=O)CSc4n[nH]c(N)n4)c3C#N)C(C)(C)C2)cc1")
"14.6 µM (active)"
>>> obs_value("O=S1(=O)c2ccccc2Nc2ccccc21")
"inactive"

Asked: Bench note: what Potency did Cc1cccc(N2CCN(C(=O)c3ccc(CS(=O)Cc4ccc(Cl)cc4)o3)CC2)c1C (stereo not given) show?
Given back: inactive

Asked: Another compound to look at: CCN1CCN(CC(=O)Nc2ccc(OC(F)(F)F)cc2)CC1
Given back: inactive

Asked: CS(=O)(=O)c1ccc2sc(NC(=O)c3cc4ccccc4o3)nc2c1 ?
Given back: inactive

Asked: What would you report for O=C(c1ccco1)N1N=C(c2ccc3nccnc3c2)CC1c1ccccc1 (stereo not given) ?
Given back: inactive

Asked: Similarly, CCOc1ccc(Br)cc1S(=O)(=O)NCc1ccncc1 ?
Given back: inactive

Asked: Also Cc1cccc(NC(=O)c2c(C)cc(=O)oc2C)n1 ?
Given back: 8.2 µM (active)

Asked: Next compound: CC(=O)Nc1ccc(-n2c(C)ccc2-c2ccccc2)cc1
Given back: inactive

====

method_description: qHTS Assay for Lipid Storage Modulators in Drosophila S3 Cells; note: potency is the fitted concentration of half-maximal effect
conditions_used: BODIPY lipid droplet fluorescence, 18-24 h, cells fed with added oleic acid; series mostly up to 46.1 µM
The whole screen tested about 320,000 compounds, of which about 2,100 (0.66%) were called active. About 53% were inconclusive and are not listed. The sample holds actives, similar compounds and a random draw of the others, so the mix is not that of the screen.
recorded_metric: Potency

# example entries with known answers
>>> obs_value("CC1Oc2ccccc2C=C1/C=N/NC(=O)[C@@H](C)NC(=O)OC(C)(C)C (stereo not given in full)")
"inactive"
>>> obs_value("CC(C(=O)NC(C)(C)C)N(Cc1cccs1)C(=O)CCN1CCc2ccccc21 (stereo not given)")
"inactive"
>>> obs_value("Cc1noc(C)c1COC(=O)c1cc(S(=O)(=O)N2CCOCC2)ccc1F")
"inactive"
>>> obs_value("CCOC(=O)C1=C(COC(=O)/C=C/c2cc(OC)c(OC)c(OC)c2)NC(=O)NC1C (stereo not given)")
"18.4 µM (active)"
>>> obs_value("CCOc1cc(N2CCOCC2)c(OCC)cc1NC(=O)Cn1[nH]c(=O)c2ccccc2c1=O")
"inactive"

Asked: Fill in the blank: the reported Potency of CC(C)(C)NC(=O)CN(C(=O)CCN1CCCc2ccccc21)C(C)(C)C is ____.
Given back: 14.6 µM (active)

Asked: Query CCc1cc2c(COC(=O)c3cc(S(=O)(=O)N4CCOCC4)ccc3F)cc(=O)oc2cc1O next
Given back: 18.4 µM (active)

Asked: And CCOC(=O)C1(CC2CC2)CCN(C(=O)c2cccnc2C)CC1 ?
Given back: inactive

Asked: Please give the result for Cc1ccc(NC(=O)COC(=O)CSC(=S)N2CCOCC2)cc1C too.
Given back: inactive

Asked: Moving on to the next molecule: O=C(OCc1nnc(-c2ccccc2)o1)c1cc(S(=O)(=O)N2CCOCC2)ccc1F
Given back: inactive
